Where do the numbers come from? From ChEMBL document CHEMBL3885861.

species: Rattus norvegicus; assay: Open TG-GATES - Regimen: Daily Repeat; assay type: toxicity, organism-based, Sprague-Dawley; set-up: regimen Daily Repeat, gender Male, age 6 weeks; conditions: in vivo, po, 0 mg/kg, […], tissue Plasma, route gavage, dose level Control, time 28 day
ASSAY ENDPOINT: gamma-GTP (IU/L)

- COMPOUND: "CC(C)C(=O)Nc1ccc([N+](=O)[O-])c(C(F)(F)F)c1 [FLUTAMIDE]"
  ASSAY ENDPOINT: "gamma-GTP"
  SCALE UNIT: "IU/L"
  NUMBER: 0.8
- COMPOUND: "CCC(C)(C)C(=O)O[C@H]1C[C@@H](C)C=C2C=C[C@H](C)[C@H](CC[C@@H]3C[C@@H](O)CC(=O)O3)[C@H]21"
  ASSAY ENDPOINT: "gamma-GTP"
  SCALE UNIT: "IU/L"
  NUMBER: 1.6
- COMPOUND: "O=C(N[C@H](CO)[C@H](O)c1ccc([N+](=O)[O-])cc1)C(Cl)Cl"
  ASSAY ENDPOINT: "gamma-GTP"
  SCALE UNIT: "IU/L"
  NUMBER: 1
- COMPOUND: "CCN1CCCC1CNC(=O)c1cc(S(N)(=O)=O)ccc1OC (stereo not drawn) [SULPIRIDE]"
  ASSAY ENDPOINT: "gamma-GTP"
  SCALE UNIT: "IU/L"
  NUMBER: 1
- COMPOUND: "CCSCC[C@H](N)C(=O)O"
  ASSAY ENDPOINT: "gamma-GTP"
  SCALE UNIT: "IU/L"
  NUMBER: 0.8
- COMPOUND: "C#C[C@]1(O)CC[C@H]2[C@@H]3CCc4cc(O)ccc4[C@H]3CC[C@@]21C"
  ASSAY ENDPOINT: "gamma-GTP"
  SCALE UNIT: "IU/L"
  NUMBER: 1
- COMPOUND: "C[C@]12CCC(=O)C=C1CC[C@@H]1[C@@H]2CC[C@@]2(C)[C@H]1CC[C@]2(C)O"
  ASSAY ENDPOINT: "gamma-GTP"
  SCALE UNIT: "IU/L"
  NUMBER: 0.8
- COMPOUND: "CCc1oc2ccccc2c1C(=O)c1cc(I)c(O)c(I)c1"
  ASSAY ENDPOINT: "gamma-GTP"
  SCALE UNIT: "IU/L"
  NUMBER: 2.2

* * *

species: Rattus norvegicus; assay: Open TG-GATES - Regimen: Daily Repeat; format: toxicity, organism-based, Sprague-Dawley; set-up: regimen Daily Repeat, gender Male, age 6 weeks; details: in vivo, po, 0 mg/kg, […], tissue Plasma, route gavage, dose level Control, time 28 day
ASSAY ENDPOINT: Na

- COMPOUND: "C[C@](N)(Cc1ccc(O)c(O)c1)C(=O)O"
  ASSAY ENDPOINT: "Na"
  RESULT: "142.8 meq/L"
- COMPOUND: "CC(=N)S [THIOACETAMIDE]"
  ASSAY ENDPOINT: "Na"
  RESULT: "135.4 meq/L"
- COMPOUND: "CC(=O)Oc1cc(C(C)C)c(OCCN(C)C)cc1C"
  ASSAY ENDPOINT: "Na"
  RESULT: "141 meq/L"
- COMPOUND: "CCc1oc2ccccc2c1C(=O)c1cc(I)c(O)c(I)c1"
  ASSAY ENDPOINT: "Na"
  RESULT: "140 meq/L"
- COMPOUND: "C[C@]12CCC(=O)C=C1CC[C@@H]1[C@@H]2CC[C@@]2(C)[C@H]1CC[C@]2(C)O"
  ASSAY ENDPOINT: "Na"
  RESULT: "143 meq/L"
- COMPOUND: "CCN1CCCC1CNC(=O)c1cc(S(N)(=O)=O)ccc1OC (stereo not given) [SULPIRIDE]"
  ASSAY ENDPOINT: "Na"
  RESULT: "143.6 meq/L"
- COMPOUND: "CN1C(=O)OC(C)(C)C1=O"
  ASSAY ENDPOINT: "Na"
  RESULT: "142.6 meq/L"
- COMPOUND: "CC(C)(S)[C@@H](N)C(=O)O"
  ASSAY ENDPOINT: "Na"
  RESULT: "144 meq/L"
- COMPOUND: "CC(C)C(=O)Nc1ccc([N+](=O)[O-])c(C(F)(F)F)c1 [FLUTAMIDE]"
  ASSAY ENDPOINT: "Na"
  RESULT: "140.8 meq/L"
- COMPOUND: "O=C(N[C@H](CO)[C@H](O)c1ccc([N+](=O)[O-])cc1)C(Cl)Cl"
  ASSAY ENDPOINT: "Na"
  RESULT: "143.8 meq/L"

* * *

organism: Rattus norvegicus; assay: Open TG-GATES - Regimen: Daily Repeat; type: toxicity, organism-based, Sprague-Dawley; set-up: regimen Daily Repeat, gender Male, age 6 weeks; details: in vivo, po, 0 mg/kg, […], tissue Kidney, route gavage, dose level Control, time 28 day
As shown below, each of these compounds has a reported KIDNEY_TOTAL value.
ASSAY ENDPOINT: KIDNEY_TOTAL (g)

- COMPOUND: "Nc1nc(N)c2nc(-c3ccccc3)c(N)nc2n1"
  ASSAY ENDPOINT: "KIDNEY_TOTAL"
  NUMBER: 2.9
- COMPOUND: "CCN1CCCC1CNC(=O)c1cc(S(N)(=O)=O)ccc1OC (stereo not given) [SULPIRIDE]"
  ASSAY ENDPOINT: "KIDNEY_TOTAL"
  NUMBER: 2.5
- COMPOUND: "C[C@]12CCC(=O)C=C1CC[C@@H]1[C@@H]2CC[C@@]2(C)[C@H]1CC[C@]2(C)O"
  ASSAY ENDPOINT: "KIDNEY_TOTAL"
  NUMBER: 2.8
- COMPOUND: "Oc1ncnc2[nH]ncc12"
  ASSAY ENDPOINT: "KIDNEY_TOTAL"
  NUMBER: 2.8
- COMPOUND: "CC(C)C(=O)Nc1ccc([N+](=O)[O-])c(C(F)(F)F)c1 [FLUTAMIDE]"
  ASSAY ENDPOINT: "KIDNEY_TOTAL"
  NUMBER: 2.7

* * *

organism: Rattus norvegicus; test: Open TG-GATES - Regimen: Daily Repeat; assay type: toxicity, organism-based, Sprague-Dawley; parameters: regimen Daily Repeat, gender Male, age 6 weeks; details: in vivo, po, 1000 mg/kg, 72 h, tissue Blood, route gavage, dose level High, time 3 day
ASSAY ENDPOINT: WBC (x10_2/uL)

- COMPOUND: "O=C(O)c1cccnc1"
  NUMBER: 116
- COMPOUND: "CC(C)(S)[C@@H](N)C(=O)O"
  NUMBER: 87.8
- COMPOUND: "CCN1CCCC1CNC(=O)c1cc(S(N)(=O)=O)ccc1OC (centres undefined) [SULPIRIDE]"
  NUMBER: 104.1
- COMPOUND: "O=C(N[C@H](CO)[C@H](O)c1ccc([N+](=O)[O-])cc1)C(Cl)Cl"
  NUMBER: 63.9

* * *

organism: Rattus norvegicus; test: Open TG-GATES - Regimen: Daily Repeat; type: toxicity, organism-based, Sprague-Dawley; parameters: regimen Daily Repeat, gender Male, age 6 weeks; conditions: in vivo, po, 300 mg/kg, […], tissue Plasma, route gavage, dose level Middle, time 7 day
ASSAY ENDPOINT: RALB (g/dL)

- MOLECULE: "O=C(N[C@H](CO)[C@H](O)c1ccc([N+](=O)[O-])cc1)C(Cl)Cl [CHLORAMPHENICOL]"
  ASSAY ENDPOINT: "RALB"
  NUMBER: 2.7
- MOLECULE: "CC(C)(S)[C@@H](N)C(=O)O [PENICILLAMINE]"
  ASSAY ENDPOINT: "RALB"
  NUMBER: 2.7
- MOLECULE: "CCN1CCCC1CNC(=O)c1cc(S(N)(=O)=O)ccc1OC (centres undefined) [SULPIRIDE]"
  ASSAY ENDPOINT: "RALB"
  NUMBER: 2.6
- MOLECULE: "O=C(O)c1cccnc1 [NIACIN]"
  ASSAY ENDPOINT: "RALB"
  NUMBER: 2.9

* * *

species on record: Rattus norvegicus; assay: Open TG-GATES - Regimen: Daily Repeat; assay type: toxicity, organism-based, Sprague-Dawley; design: regimen Daily Repeat, gender Male, age 6 weeks; conditions: in vivo, po, 1000 mg/kg, […], tissue Blood, route gavage, dose level High, time 7 day
ASSAY ENDPOINT: Hb (g/dL)

- MOLECULE: "CCN1CCCC1CNC(=O)c1cc(S(N)(=O)=O)ccc1OC (centres undefined) [SULPIRIDE]"
  NUMBER: 14
- MOLECULE: "O=C(O)c1cccnc1"
  NUMBER: 13.6
- MOLECULE: "O=C(N[C@H](CO)[C@H](O)c1ccc([N+](=O)[O-])cc1)C(Cl)Cl"
  NUMBER: 13
- MOLECULE: "CC(C)(S)[C@@H](N)C(=O)O"
  NUMBER: 13.2
